molecular target: SARS-CoV-2 Spike on HIV-based pseudotyped virus (Spike plasmid BEI NR52310) (SARS-CoV-2, UniProt P0DTC2 14-1273); assay: cell-based or functional assay
Measured quantity: IC50 SARS-CoV2 PsV (µg/mL), IgG

Entry mAb 64 (antibody, V domains shown, also called IgG 64) VH: EVQLLESGGGLVQPGGSLRLSCAASGFPFSQHGMHWVRQAPGKGLEWVSAIDRSGSYIYYADSVKGRFTISRDNSKNTLYLQMNSLRAEDTAVYYCARDTYGGKVTYFDYWGQGTLVTVSS VL: DIQMTQSPSSLSASVGDRVTITCRASQGISSHLAWYQQKPGKAPKLLIYDASNLETGVPSRFSGSGSGTDFTLTISSLQPEDFATYYCQQTYSTPWTFGQGTKVEIKR — recorded IC50 SARS-CoV2 PsV (µg/mL), IgG = > 50 µg/mL

Next:
Lookup result for mAb 254 (antibody, V domains shown, also called IgG 254) VH: EVQLLESGGGLVQPGGSLRLSCAASGFTFSSSAMHWVRQAPGKGLEWVSAIGTGGDTYYADSVKGRFTISRDNSKNTLYLQMNSLRAEDTAVYYCAREGDGYNFYFDYWGQGTLVTVSS VL: DIQMTQSPSSLSASVGDRVTITCRASQGISSYLAWYQQKPGKAPKLLIYDASSLQIGVPSRFSGSGSGTDFTLTISSLQPEDFATYYCLQSYSTPPWTFGQGTKVEIKR ; measured IC50 SARS-CoV2 PsV (µg/mL), IgG: > 50 µg/mL

Kindly note the recorded IC50 SARS-CoV2 PsV (µg/mL), IgG for mAb 82 (antibody, V domains shown, also called IgG 82) VH: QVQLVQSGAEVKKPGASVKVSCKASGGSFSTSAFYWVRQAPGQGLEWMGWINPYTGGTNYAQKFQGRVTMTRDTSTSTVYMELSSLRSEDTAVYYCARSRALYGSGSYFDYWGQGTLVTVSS VL: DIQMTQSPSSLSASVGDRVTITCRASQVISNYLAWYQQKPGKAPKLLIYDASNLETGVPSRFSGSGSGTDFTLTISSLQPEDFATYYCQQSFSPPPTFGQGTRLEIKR , which is 1.6 µg/mL

Values compiled from patent US20250011397A1.
